Listed molecules paired with reported alpha-2 - Selectivity Ki alpha 1/Ki alpha-2
# Test system: alpha 2 receptor
# PROTOCOL_NOTES: Radioligand binding, [3H]rauwolscine, rat cerebral cortices
# DETAILS: Ki alpha 1/Ki alpha-2
Structures can show the parent of a compound that is named as a salt.
VALUE_KIND: alpha-2 - Selectivity Ki alpha 1/Ki alpha-2

>>> df
                                   molecule  data_value
0  Fc1ccc2c(c1)CCCC2CN1CCC(c2ccccc2)C1 (stereo not drawn)          19
1  CN(CCc1cccs1)CC1CCCc2c(Cl)cccc21 (stereo not drawn) [Example 129, hydrochloride]          55
2  CN(c1ccc2c(c1)CCCC2CN1CCC(c2ccccc2)C1)S(C)(=O)=O (stereo not drawn) [Example 193, hydrochloride]          93
3  CN(CCc1cccc(F)c1)CC1CCCc2c1ccc1c2OCCO1 (stereo not drawn)          85
4  c1ccc(C2CCN(CC3CCCc4c3ccc3c4OCO3)C2)cc1 (stereo not drawn) [Example 143a]          43
5  COc1cccc2c1CCCC2CN1CCC(c2cccs2)C1 (stereo not drawn) [Example 146, hydrochloride]          35

* * *

# SYSTEM_NAME: alpha 1 receptor (Rattus norvegicus, UniProt P15823)
# Sequence (P15823 whole entry): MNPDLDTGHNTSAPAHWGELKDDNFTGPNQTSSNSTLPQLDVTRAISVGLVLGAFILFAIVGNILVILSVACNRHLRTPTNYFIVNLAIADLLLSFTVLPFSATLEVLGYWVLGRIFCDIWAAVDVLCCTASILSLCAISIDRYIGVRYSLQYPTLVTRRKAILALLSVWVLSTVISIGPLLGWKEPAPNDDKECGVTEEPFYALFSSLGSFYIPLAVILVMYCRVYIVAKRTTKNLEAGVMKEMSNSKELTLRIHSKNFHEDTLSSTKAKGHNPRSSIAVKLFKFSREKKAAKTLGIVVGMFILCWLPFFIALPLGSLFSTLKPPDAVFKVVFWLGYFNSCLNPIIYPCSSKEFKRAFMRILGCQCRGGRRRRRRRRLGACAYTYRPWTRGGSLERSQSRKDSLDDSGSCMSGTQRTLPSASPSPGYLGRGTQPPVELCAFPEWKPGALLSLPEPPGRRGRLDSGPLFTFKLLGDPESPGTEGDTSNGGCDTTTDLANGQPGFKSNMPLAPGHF
pKi: −log10 of the molar value. Where a name gives a salt, the structure may show the parent alone.
VALUE_KIND: pKi

                                   compound  data_value
0  COc1ccc2c(c1)CCC2CN1CCC(c2ccccc2)C1 (stereo not shown) [Example 152, hydrochloride]        7.29

* * *

# SYSTEM_NAME: alpha 2 receptor (Rattus norvegicus)
# Construct: rat cerebral cortices; from tissue; host or cells: rat cerebral cortices
# Sequence (P22909 whole entry): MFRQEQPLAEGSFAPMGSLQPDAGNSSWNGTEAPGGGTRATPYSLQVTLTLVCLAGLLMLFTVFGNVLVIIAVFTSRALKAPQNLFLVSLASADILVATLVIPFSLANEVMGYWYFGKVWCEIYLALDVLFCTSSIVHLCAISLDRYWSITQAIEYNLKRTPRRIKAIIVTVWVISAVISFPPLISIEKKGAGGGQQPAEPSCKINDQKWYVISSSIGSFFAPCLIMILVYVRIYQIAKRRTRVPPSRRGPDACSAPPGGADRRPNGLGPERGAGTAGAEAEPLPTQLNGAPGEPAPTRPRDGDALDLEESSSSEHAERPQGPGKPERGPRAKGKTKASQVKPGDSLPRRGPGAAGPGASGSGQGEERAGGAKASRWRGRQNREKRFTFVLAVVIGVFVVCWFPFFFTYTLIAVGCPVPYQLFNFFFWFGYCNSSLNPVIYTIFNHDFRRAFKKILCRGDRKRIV
# PROTOCOL_NOTES: Radioligand binding, [3H]rauwolscine, rat cerebral cortices
# DETAILS: read-out: Ki alpha-2
pKi: −log10 of the molar value. Where a name gives a salt, the structure may show the parent alone.
VALUE_KIND: pKi

>>> df
                                    compound  data_value
 0  COc1ccc2c(c1)C(CN(C)CCc1cccs1)CCC2 (centres unmarked) [Example 27, hydrochloride]        8.70
 1  CN(CCc1cccs1)CC1CCCc2c(Cl)cccc21 (centres unmarked) [Example 129, hydrochloride]        8.44
 2  CN(CCc1cccc(F)c1)CC1CCCc2ccccc21 (centres unmarked) [Example 70, hydrochloride]        8.30
 3  Fc1ccc2c(c1)CCCC2CN1CCC(c2ccccc2)C1 (centres unmarked) [Example 148]        8.19
 4  CCN(CCc1cccc(F)c1)CC1CCCc2c1ccc1c2OCO1 (centres unmarked) [Example 165, hydrochloride]        8.46
 5  COc1ccc2c(c1)CCCC2CN(C)CCc1cccn1C (centres unmarked) [Example 12]        8.30
 6  COc1ccc2c(c1)CCCC2CN(C)CCc1cccc(O)c1 (centres unmarked) [Example 83, hydrochloride]        8.10
 7  COc1cccc2c1CCCC2CN1CCC(c2cccs2)C1 (centres unmarked) [Example 146, hydrochloride]        8.31
 8  COc1ccc2c(c1)CCCC2CN(C)CCc1ccsc1 (centres unmarked) [Example 6d, hydrochloride]        8.82
 9  COc1cc2c(cc1C)C(CN(C)CCc1ccco1)CCC2 (centres unmarked) [Example 128, hydrochloride]        8.10
10  CCN(CCc1cccs1)CC1CCCc2c1ccc1c2OCCO1 (centres unmarked) [Example 168, hydrochloride]        8.18
11  CCN(CCc1ccco1)CC1CCCc2cc(OC)ccc21 (centres unmarked) [Example 43, hydrochloride]        8.22
12  COc1ccc2c(c1)CCCC2CN(C)CCc1cccc(F)c1 (centres unmarked) [Example 6b, hydrochloride]        8.30
13  CN(CCc1cccc(N)c1)CC1CCCc2cc(O)ccc21 (centres unmarked) [Example 68, dihydrobromide]        8.22
14  c1ccc(C2CCN(CC3CCCc4c3ccc3c4OCO3)C2)cc1 (centres unmarked) [Example 143a]        8.92
15  CN(CCc1cccc(F)c1)CC1CCCc2c1ccc(O)c2O (centres unmarked) [Example 85, hydrochloride]        8.82
16  COc1ccc2c(c1)CCCC2CN(C)CCc1cccs1 (centres unmarked) [Example 5]        9.10
17  COc1ccc(C)c2c1CCCC2CN(C)CCc1cccs1 (centres unmarked) [Example 36, hydrochloride]        8.16
18  CN(CCc1cccc(F)c1)CC1CCCc2c1ccc1c2OCCO1 (centres unmarked) [Example 167]        8.38
19  COc1cc2c(c(OC)c1)C(CN(C)CCc1cccs1)CCC2 (centres unmarked) [Example 26, hydrochloride]        9.22
20  CCN(CCc1ccsc1)CC1CCCc2cc(OC)ccc21 (centres unmarked) [Example 44, hydrochloride]        8.25
21  CCN(CCc1cccc(F)c1)CC1CCCc2cc(OC)ccc21 (centres unmarked) [Example 42, hydrochloride]        8.18
22  CN(CCc1cccs1)CC1CCCc2cc(O)ccc21 (centres unmarked) [Example 7, hydrochloride]        8.80
23  CN(c1ccc2c(c1)CCCC2CN1CCC(c2ccccc2)C1)S(C)(=O)=O (centres unmarked) [Example 193, hydrochloride]        8.89
24  COc1ccc2c(c1OC)CCCC2CN(C)CCc1cccs1 (centres unmarked) [Example 86, hydrochloride]        8.52
25  CCOc1ccc2c(c1)CCCC2CN(C)CCc1cccc(N)c1 (centres unmarked) [Example 69, dihydrochloride]        7.89
26  COc1ccc2c(c1)CCC2CN1CCC(c2cccc(F)c2)C1 (centres unmarked) [Example 153, hydrochloride]        8.07
27  CN(CCc1cccc(F)c1)CC1CCCc2c1ccc1c2OCO1 (centres unmarked) [Example 166]        8.35
28  COc1cc2c(cc1F)C(CN(C)CCc1ccco1)CCC2 (centres unmarked) [Example 141]        8.32
29  CN(CCc1cccs1)CC1CCCc2c1ccc1c2OCCO1 (centres unmarked) [Example 30, hydrochloride]        8.40
30  CN(CCc1ccccc1)CC1CCCc2cc(N)ccc21 (centres unmarked) [Example 114, dihydrochloride]        8.24
31  CN(CCc1cccs1)CC1CCCc2c1ccc1c2OCO1 (centres unmarked) [Example 23, hydrochloride]        8.77
